# Target entity: T1, EGFR-ECD (extracellular domain of human epidermal growth factor receptor, 1-643) (Homo sapiens, UniProt P00533, N-linked oligosaccharides cleaved by endoglycosidase H)
# T1 construct: human epidermal growth factor receptor, extracellular domain, residues 1-643 as printed; A TEV site between the ECD and the His-tag is implied by the cleavage; also called extracellular domain of human EGFR; human EGFR-ECD; source: HEK293S GnTI- cells, transient overexpression, secreted; purified (HisTrap, TEV cleavage of the His-tag, endoglycosidase H, HiTrap Q, SEC); not shown: His-tag, …
# Assay remarks: SPR; BIAcore 3000; EGFR-ECD immobilised on a CM5 chip by amine coupling; single-cycle kinetics with 50.0, 16.6, 5.55, 1.85 and 0.617 nM Fv or Fab; 30 ul/min, 60-s association, 120-s dissociation; 25 C; HBS-EP+ buffer; triplicate
# Test parameters: both partners purified
Measure: koff (s⁻¹)

- Binder: "AzF-incorporated 059-152-Fv (other, human, also in PDB 5XWD; linker inserted just before the stop codon, followed by the amber codon that is read as AzF; Fv; AzF is the last residue of the VH chain, after the linker; also called AzF-incorporated Fv; not shown: N11-tag, N-terminal, cleaved) VH: QVQLQESGPGLVKPSETLSLTCTVSGGSISSSSYYWGWIRQPPGKGLEWIGSIYYSGSTYYNPSLKSRVTISVDTSKNQFSLKLSSVTAADTAVYYCARLPMVTMSFDYWGQGTLVTVSS VL: SYVLTQPPSVSVAPGKTARITCGGNNIGSKSVHWYQQKPGQAPVLVIYYDSDRPSGIPERFSGSNSGNTATLTISRVEAGDEADYYCQVWDSSSDHVVFGGGTKLTVL"
  Measure: "koff"
  Scale unit: "s⁻¹"
  Assay result: 0.0137
- Binder: "AzF-incorporated 059-152-Fab (Fab, V domains shown, also in PDB 5XWD; linker inserted just before the stop codon, followed by the amber codon that is read as AzF; AzF is the last residue of the VHCH1 chain, after the linker; also called AzF-incorporated Fab; not shown: N11-tag, N-terminal, cleaved) VH: QVQLQESGPGLVKPSETLSLTCTVSGGSISSSSYYWGWIRQPPGKGLEWIGSIYYSGSTYYNPSLKSRVTISVDTSKNQFSLKLSSVTAADTAVYYCARLPMVTMSFDYWGQGTLVTVSS VL: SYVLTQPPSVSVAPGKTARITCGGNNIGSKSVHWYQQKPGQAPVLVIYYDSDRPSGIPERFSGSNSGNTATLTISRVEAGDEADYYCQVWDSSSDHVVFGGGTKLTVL"
  Measure: "koff"
  Scale unit: "s⁻¹"
  Assay result: 0.0125
- Binder: "059-152-Fv (Fv fragment of the fully human anti-EGFR antibody 059-152) (other, also in PDB 5XWD; VL also in PDB 5XWD; Fv: VH and VL synthesised together as two separate chains; source: cell-free synthesis (E. coli S30 extract, dialysis mode, 0.2 mg/ml DsbC), purified (HisTrap, TEV cleavage, SEC); not shown: N11-tag, N-terminal, cleaved) VH: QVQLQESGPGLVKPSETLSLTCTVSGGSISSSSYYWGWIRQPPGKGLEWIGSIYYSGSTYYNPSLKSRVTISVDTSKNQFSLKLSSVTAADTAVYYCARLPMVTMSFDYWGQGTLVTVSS VL: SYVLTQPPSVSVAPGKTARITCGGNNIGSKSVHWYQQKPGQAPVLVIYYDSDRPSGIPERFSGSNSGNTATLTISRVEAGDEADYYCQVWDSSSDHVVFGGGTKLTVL"
  Measure: "koff"
  Scale unit: "s⁻¹"
  Assay result: 0.0147
- Binder: "059-152-Fab (Fab fragment of the fully human anti-EGFR antibody 059-152) (Fab, V domains shown, also in PDB 5XWD; its VL part is in PDB 5XWD; source: cell-free synthesis (E. coli S30 extract, dialysis mode, 0.8 mg/ml DsbC), purified (HisTrap, TEV cleavage, SEC); not shown: N11-tag, N-terminal, cleaved) VH: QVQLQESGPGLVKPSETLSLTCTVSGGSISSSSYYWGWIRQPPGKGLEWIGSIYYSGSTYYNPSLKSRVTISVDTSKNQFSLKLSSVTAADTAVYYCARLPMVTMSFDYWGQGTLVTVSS VL: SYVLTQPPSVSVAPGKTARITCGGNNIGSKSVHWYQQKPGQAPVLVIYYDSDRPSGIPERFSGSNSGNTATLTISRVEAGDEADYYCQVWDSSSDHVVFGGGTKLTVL"
  Measure: "koff"
  Scale unit: "s⁻¹"
  Assay result: 0.015
